Biological target: ASK1 (Homo sapiens, UniProt Q99683)
Sequence (Q99683 1-1374): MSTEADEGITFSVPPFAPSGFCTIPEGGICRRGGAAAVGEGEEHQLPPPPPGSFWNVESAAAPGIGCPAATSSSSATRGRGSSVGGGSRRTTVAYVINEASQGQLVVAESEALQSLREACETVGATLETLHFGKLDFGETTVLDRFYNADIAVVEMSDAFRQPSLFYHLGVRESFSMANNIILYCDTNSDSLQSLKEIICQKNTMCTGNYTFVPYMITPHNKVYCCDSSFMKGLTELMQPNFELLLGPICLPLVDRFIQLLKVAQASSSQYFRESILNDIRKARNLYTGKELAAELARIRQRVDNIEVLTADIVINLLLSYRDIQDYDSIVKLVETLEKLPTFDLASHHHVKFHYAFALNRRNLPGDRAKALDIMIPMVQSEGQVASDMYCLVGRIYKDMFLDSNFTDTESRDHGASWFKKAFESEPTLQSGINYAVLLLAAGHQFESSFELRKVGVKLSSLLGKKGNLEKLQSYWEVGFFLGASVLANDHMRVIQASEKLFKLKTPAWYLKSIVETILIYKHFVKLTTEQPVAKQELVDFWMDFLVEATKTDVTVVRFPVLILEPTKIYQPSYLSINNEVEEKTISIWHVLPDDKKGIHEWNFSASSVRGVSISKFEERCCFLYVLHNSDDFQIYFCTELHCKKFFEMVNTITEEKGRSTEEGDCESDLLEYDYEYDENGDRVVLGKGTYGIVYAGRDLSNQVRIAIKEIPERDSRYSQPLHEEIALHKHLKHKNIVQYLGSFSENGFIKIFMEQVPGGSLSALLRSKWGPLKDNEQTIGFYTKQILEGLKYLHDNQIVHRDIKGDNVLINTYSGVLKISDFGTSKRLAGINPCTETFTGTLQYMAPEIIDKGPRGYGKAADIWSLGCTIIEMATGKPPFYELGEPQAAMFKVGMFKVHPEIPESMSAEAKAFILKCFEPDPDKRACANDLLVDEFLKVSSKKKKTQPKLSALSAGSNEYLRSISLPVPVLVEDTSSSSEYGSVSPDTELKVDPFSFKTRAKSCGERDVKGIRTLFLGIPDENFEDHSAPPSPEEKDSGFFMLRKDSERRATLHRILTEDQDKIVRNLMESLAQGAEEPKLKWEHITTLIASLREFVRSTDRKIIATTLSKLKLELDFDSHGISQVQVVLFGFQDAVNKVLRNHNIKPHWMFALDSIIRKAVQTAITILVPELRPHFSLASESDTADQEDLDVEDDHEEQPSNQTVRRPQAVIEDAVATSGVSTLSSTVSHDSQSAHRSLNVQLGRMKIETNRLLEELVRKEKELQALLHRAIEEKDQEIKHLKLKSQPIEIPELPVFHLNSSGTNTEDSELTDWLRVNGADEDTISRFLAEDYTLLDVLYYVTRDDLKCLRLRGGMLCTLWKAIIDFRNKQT
Experiment: Kinase profiling (radiometric filter-binding)
Assay type: biochemical
Details: ASK1, 1 µM inhibitor; read-out: Residual activity, %
Experimental: Kinase selectivity profiling was performed using the commercial service provided by the MRC PPU International Centre for Kinase Profiling (Dundee, UK) using a radiometric filter-binding assay. Kinases used for analysis were of human origin. The ATP concentration applied for inhibition measurements was at or below the ATP KM value of the particular PK. […] Residual activities were expressed as the percentage of retained activity compared to the control without inhibitor.
Square brackets hold non-standard residues; d marks the D form. Peptide text beside a SMILES is read from it. * marks the point of attachment. X3 = O=C(CCCCCNCc1nc2c(sc3cc(Br)cnc32)c(=O)[nH]1)*
value_type: remaining activity at 1 µM (%)
# output: bare number, implied unit %

Use the examples below as a reference point.
[[record]]
molecule = "N=C(N)NCCC[C@@H](NC(=O)CCCCCNCc1nc2c(sc3cc(Br)cnc32)c(=O)[nH]1)C(=O)N[C@H](CCCNC(=N)N)C(=O)N[C@H](CCCNC(=N)N)C(=O)N[C@H](CCCNC(=N)N)C(=O)N[C@H](CCCNC(=N)N)C(=O)N[C@H](CCCNC(=N)N)C(=O)N[C@H](CCCCN)C(N)=O [ARC-3126, BPTP-Ahx-(D-Arg)6-D-Lys-NH2] (X3-[dR][dR][dR][dR][dR][dR][dK]-NH2)"
unit_tag = "%"
reported_value = 121

[[record]]
molecule = "N=C(N)NCCC[C@@H](NC(=O)CNC(=O)[C@@H](CCCNC(=N)N)NC(=O)[C@@H](CCCNC(=N)N)NC(=O)CCCCCCCNCc1nc2c(sc3cc(Br)cnc32)c(=O)[nH]1)C(=O)N[C@H](CCCCN)C(N)=O"
unit_tag = "%"
reported_value = 99

[[record]]
molecule = "N=C(N)NCCC[C@@H](NC(=O)CNC(=O)[C@@H](CCCNC(=N)N)NC(=O)[C@@H](CCCNC(=N)N)NC(=O)Cn1cc(CNCc2nc3c(sc4ccc(Br)cc43)c(=O)[nH]2)nn1)C(=O)N[C@H](CCCCN)C(N)=O"
unit_tag = "%"
reported_value = 101

[[record]]
molecule = "N=C(N)NCCC[C@@H](NC(=O)CNC(=O)[C@@H](CCCNC(=N)N)NC(=O)[C@@H](CCCNC(=N)N)NC(=O)CCCCCCCNCc1nc2c(sc3ccc(Br)cc32)c(=O)[nH]1)C(=O)N[C@H](CCCCN)C(N)=O"
unit_tag = "%"
reported_value = 102


Switching to the query record.
Tell me reported remaining activity at 1 µM for `N=C(N)NCCC[C@@H](NC(=O)CCCCCNC(=O)Cn1cnc2c(I)c(I)c(I)c(I)c21)C(=O)N[C@H](CCCNC(=N)N)C(=O)N[C@H](CCCNC(=N)N)C(=O)N[C@H](CCCNC(=N)N)C(=O)N[C@H](CCCNC(=N)N)C(=O)N[C@H](CCCNC(=N)N)C(=O)N[C@H](CCCCN)C(N)=O` , tested with ASK1 (Homo sapiens, UniProt Q99683). 93
